- EXPERIMENTAL_DETAILS: Approximate visual solubility in receiver fluids
- Type: physicochemical
- MEASUREMENT_PARAMETERS: aqueous with cosolvent or surfactant or cyclodextrin; PBS and 5% Tween 80 (Table 4); read-out: Approximate visual solubility
- Protocol: The visual solubility of each receiver fluid shown in Table 3 below was initially tested for ketoconazole (BUFA B.V.) and ciclopirox (PCAS Finland Oy). Additional solubility testing was then conducted for terbinafine hydrochloride (QueMaCo Ltd.), amorolfine hydrochloride (Inter-Chemical Ltd.) and itraconazole EP (Shamrock, UK) and the results are shown in Table 3. […]
TEST_READOUT: solubility

So, OC(Cn1cncn1)(Cn1cncn1)c1ccc(F)cc1F [Fluconazole, fluconazole] ? Its solubility was 1.91 to 2.17 mg/mL

* * *

Listed here are compounds together with their documented solubility.
- EXPERIMENTAL_DETAILS: Approximate visual solubility in receiver fluids
- Type: physicochemical
- MEASUREMENT_PARAMETERS: aqueous with cosolvent or surfactant or cyclodextrin, Approximate visual solubility
Counter-ions that a name gives are not always drawn.

So, CCC(C)n1ncn(-c2ccc(N3CCN(c4ccc(OCC5COC(Cn6cncn6)(c6ccc(Cl)cc6Cl)O5)cc4)CC3)cc2)c1=O (stereo not drawn) ? Its solubility was < 330 µg/mL

So, CN(C/C=C/C#CC(C)(C)C)Cc1cccc2ccccc12 [terbinafine HCl] ? Its solubility was > 5000 µg/mL

So, CCC(C)(C)c1ccc(CC(C)CN2C[C@@H](C)O[C@@H](C)C2)cc1 (stereo partly drawn) [Amorolfine hydrochloride, amorolfine hydrochloride] ? Its solubility was 2050 to 2570 µg/mL

* * *

- EXPERIMENTAL_DETAILS: Approximate visual solubility in receiver fluids
- Format: physicochemical
- MEASUREMENT_PARAMETERS: aqueous with cosolvent or surfactant or cyclodextrin, 5% Tween-80 in PBS; read-out: Approximate visual solubility
TEST_READOUT: solubility

So, CC(=O)N1CCN(c2ccc(OCC3COC(Cn4ccnc4)(c4ccc(Cl)cc4Cl)O3)cc2)CC1 (stereo not shown) ? Its solubility was 1280 to 1530 µg/mL

* * *

- EXPERIMENTAL_DETAILS: Effect of Tween-20 and Tween-80 on terbinafine HCl solubility in water and PBS
- Type: physicochemical
- MEASUREMENT_PARAMETERS: aqueous buffer, thermodynamic from solid; PBS, 19° C., n = 3
Where a name gives a salt, the structure may show the parent alone.
TEST_READOUT: solubility at 24 h (µg/mL)
Provide the reading as a plain figure in µg/mL.

So, CN(C/C=C/C#CC(C)(C)C)Cc1cccc2ccccc12 [terbinafine HCl] ? Its solubility at 24 h was 1320

* * *

- EXPERIMENTAL_DETAILS: Approximate visual solubility in receiver fluids
- Format: physicochemical
- MEASUREMENT_PARAMETERS: aqueous with cosolvent or surfactant or cyclodextrin, 5% Ethanol in PBS; read-out: Approximate visual solubility
TEST_READOUT: solubility

So, CC(=O)N1CCN(c2ccc(OCC3COC(Cn4ccnc4)(c4ccc(Cl)cc4Cl)O3)cc2)CC1 (stereo not shown) ? Its solubility was < 910 µg/mL

* * *

- EXPERIMENTAL_DETAILS: Approximate visual solubility in receiver fluids
- Assay type: physicochemical
- MEASUREMENT_PARAMETERS: aqueous with cosolvent or surfactant or cyclodextrin, 0.5% Tween-80 in PBS; read-out: Approximate visual solubility
- Protocol: The visual solubility of each receiver fluid shown in Table 3 below was initially tested for ketoconazole (BUFA B.V.) and ciclopirox (PCAS Finland Oy). Additional solubility testing was then conducted for terbinafine hydrochloride (QueMaCo Ltd.), amorolfine hydrochloride (Inter-Chemical Ltd.) and itraconazole EP (Shamrock, UK) and the results are shown in Table 3. […]
TEST_READOUT: solubility

So, CC(=O)N1CCN(c2ccc(OCC3COC(Cn4ccnc4)(c4ccc(Cl)cc4Cl)O3)cc2)CC1 (stereo not shown) ? Its solubility was < 0.412 mg/mL

The measurements presented in this section are drawn from patent US20080261986A1.
